We begin with a simple list: items and their reported CYP inhibition (% of control activity) CYP2D6.
molecular target: UniProtKB P10635; details: microsomes, 10 µM
Sequence (P10635 whole entry): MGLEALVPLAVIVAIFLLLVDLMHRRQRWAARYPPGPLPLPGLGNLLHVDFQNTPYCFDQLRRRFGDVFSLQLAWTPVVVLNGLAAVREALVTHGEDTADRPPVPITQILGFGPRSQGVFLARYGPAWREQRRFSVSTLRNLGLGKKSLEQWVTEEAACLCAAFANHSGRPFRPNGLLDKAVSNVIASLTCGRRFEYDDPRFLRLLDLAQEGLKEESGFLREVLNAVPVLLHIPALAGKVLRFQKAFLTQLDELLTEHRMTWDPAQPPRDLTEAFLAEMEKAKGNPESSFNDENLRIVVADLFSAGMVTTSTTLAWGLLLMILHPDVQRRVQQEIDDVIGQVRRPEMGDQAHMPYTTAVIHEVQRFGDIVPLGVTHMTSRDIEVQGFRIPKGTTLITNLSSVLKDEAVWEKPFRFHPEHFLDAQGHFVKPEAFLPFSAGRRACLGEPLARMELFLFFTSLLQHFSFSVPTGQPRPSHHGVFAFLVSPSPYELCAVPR
Numbered stars: 1 amine (or outer) side, 2 acyl side, 3 side chain; on linkers, the order of the positions; unused ones are H or OH. Bridge positions count the residues as written; N and C are the ends. Square brackets hold non-standard residues; d marks the D form. Peptide text beside a SMILES is read from it. ξ: configuration not given here. ξhAlg = O=C(C(CCC=[*:3])N[*:1])[*:2]; AllylGly = C=CC[CH](N)C(=O)O

The examples below pair each entry with its known result.
# molecule, result
records = [
    ("O=C(COc1ccc(C(=O)c2ccccc2)cc1)NC1CCN(Cc2ccccc2)CC1 [DS-43, adiporon, reference compound]", "30.3 % of control activity"),
    ("CC(C)CC(NC(=O)CN)C(=O)N(C)C(Cc1ccc(O)cc1)C(=O)NC(Cc1ccc(O)cc1)C(=O)NC(Cc1ccccc1)C(N)=O (stereo not drawn) [DS-56, NH2-GLY(N-Me)YF-NH2]", "91.6 % of control activity"),
    ("CC(C)CC1NC(=O)C(N)CC/C=C\\CC(C(N)=O)NC(=O)C(Cc2ccc(O)cc2)NC(=O)C(Cc2ccc(O)cc2)NC1=O (stereo not drawn) [DS-73] (H-[ξhAlg]LYY[AllylGly]-NH2; staple (Z) 1-5; configuration not given here)", "85.9 % of control activity"),
    ("CC(=O)NC(CC(=O)O)C(=O)NC(Cc1ccc(O)cc1)C(=O)NC(Cc1ccc(O)cc1)C(=O)NC(Cc1ccccc1)C(=O)O (stereo not drawn) [DS-28, AcNH-DYYF-OH] (Ac-DYYF-OH; configuration not given here)", "86.1 % of control activity"),
    ("CC(C)C[C@H](NC(=O)CN)C(=O)N[C@@H](Cc1ccc(O)cc1)C(=O)N[C@@H](Cc1ccc(O)cc1)C(=O)N[C@@H](Cc1ccccc1)C(=O)O [APN5, NH2-GLYYF-OH, reference compound]", "92.3 % of control activity"),
]

Could you now look at the following molecule, please?
Lab note: NCCCCC(NC(=O)C(Cc1ccc(O)cc1)NC(=O)C(Cc1ccc(O)cc1)NC(=O)C(CC(=O)O)NC(=O)CN)C(N)=O (stereo not drawn) [DS-35, NH2-GDYYK-NH2] (H-GDYYK-NH2; configuration not given here) gave CYP inhibition (% of control activity) CYP2D6 of 97.4 % of control activity

###

experiment: Solubility test; conditions: PRISMA HT buffer (diluted 1:40 in distilled water), pH 7.4, pH 7.4, aqueous buffer, kinetic from dmso stock
measuredAttribute: solubility kinetic at 24 h (µg/mL)
# unit: µg/mL | format: bare number

Lab note: O=C(COc1ccc(C(=O)c2ccccc2)cc1)NC1CCN(Cc2ccccc2)CC1 [DS-43, adiporon, reference compound] gave solubility kinetic at 24 h of 43.7

###

assay: Solubility test; conditions: PRISMA HT test buffer, pH 7.4, aqueous buffer, kinetic from dmso stock
measuredAttribute: solubility at 24 h (µg/mL)
# unit: µg/mL | format: bare number

Lab note: CC(C)CC(NC(=O)CN)C(=O)NC(Cc1ccc(O)cc1)C(=O)NC(Cc1ccc(O)cc1)C(=O)N(C)C(Cc1ccccc1)C(N)=O (stereo not shown) gave solubility at 24 h of 334

###

system: AMPK phosphorylation; assay: AMPK phosphorylation activity in mouse adipocytes (Western blot); format: cell-based; conditions: 3T3-L1, 10 μM, 24 hours; APN5 = 1.0
Square brackets hold non-standard residues; d marks the D form. Peptide text beside a SMILES is read from it. Phe(4-Cl) = N[CH](Cc1ccc(Cl)cc1)C(=O)O
measuredAttribute: AMPK phosphorylation activity (fold change)
# unit: fold change | format: bare number

The examples below pair each entry with its known result.
# compound, unitAnnotation, numericResult
measured = [
    ("NC(CC(=O)O)C(=O)NC(Cc1ccc(O)cc1)C(=O)NC(Cc1ccc(O)cc1)C(=O)NC(Cc1ccccc1)C(=O)O (centres unmarked) [DS-27, NH2-DYYF-OH] (H-DYYF-OH; configuration not given here)", "fold change", 1.3),
    ("CC(C)CC(NC(=O)CN)C(=O)NC(Cc1ccc(Cl)cc1)C(=O)NC(Cc1ccc(O)cc1)C(=O)NC(Cc1ccccc1)C(N)=O (centres unmarked) [DS-52, NH2-GLF(4-C1)YF-NH2] (H-GL[Phe(4-Cl)]YF-NH2; configuration not given here)", "fold change", 1.2),
    ("NCC(=O)NC(CC(N)=O)C(=O)NC(Cc1ccc(O)cc1)C(=O)NC(Cc1ccc(O)cc1)C(=O)NC(Cc1ccccc1)C(=O)O (centres unmarked) [DS-9, NH2-GNYYF-OH] (H-GNYYF-OH; configuration not given here)", "fold change", 1.6),
    ("CC(=O)NC(CC(=O)O)C(=O)NC(Cc1ccc(O)cc1)C(=O)NC(Cc1ccc(O)cc1)C(=O)NC(Cc1ccccc1)C(=O)O (centres unmarked) [DS-28, AcNH-DYYF-OH] (Ac-DYYF-OH; configuration not given here)", "fold change", 1.9),
]

Could you now look at the following compound, please?
Lab note: CC(C)CC(NC(=O)CN)C(=O)NC(Cc1ccc(O)cc1)C(=O)NC(Cc1ccc(O)cc1)C(=O)N(C)C(Cc1ccccc1)C(N)=O (centres unmarked) gave AMPK phosphorylation activity (fold change) of 1.5

###

assay: Metabolic stability test, rat liver microsomes; format: in vitro ADME; settings: pH 7.4, rat liver microsomes 0.5 mg/ml, NADPH, 37° C., 30 m
Peptide text beside a SMILES is read from it.
measuredAttribute: remaining at 0.5 h, 1 μM (%)

a: CC(C)CC(NC(=O)CN)C(=O)N(C)C(Cc1ccc(O)cc1)C(=O)NC(Cc1ccc(O)cc1)C(=O)NC(Cc1ccccc1)C(N)=O (stereo not shown)
b: NCCCCC(NC(=O)C(Cc1ccc(O)cc1)NC(=O)C(Cc1ccc(O)cc1)NC(=O)C(CC(=O)O)NC(=O)CN)C(N)=O (stereo not shown) [DS-35, NH2-GDYYK-NH2] (H-GDYYK-NH2; configuration not given here)
input: Select the item whose remaining at 0.5 h, 1 μM value is smaller, choosing between a and b . Bench note: the answer is the label of the chosen record.
output: a

###

experiment: physchem; settings: pH 7.4, aqueous buffer, kinetic from dmso stock
Numbered stars: 1 amine (or outer) side, 2 acyl side, 3 side chain; on linkers, the order of the positions; unused ones are H or OH. Bridge positions count the residues as written; N and C are the ends. Square brackets hold non-standard residues; d marks the D form. Peptide text beside a SMILES is read from it. ξ: configuration not given here. Phe(4-F) = N[CH](Cc1ccc(F)cc1)C(=O)O; ξhAlg = O=C(C(CCC=[*:3])N[*:1])[*:2]; AllylGly = C=CC[CH](N)C(=O)O
measuredAttribute: solubility at 24 h (µg/mL)

The examples below pair each entry with its known result.
# compound, unitAnnotation, solubility at 24 h
records = [
    ("CC(=O)NC(CC(=O)O)C(=O)NC(Cc1ccc(O)cc1)C(=O)NC(Cc1ccc(O)cc1)C(=O)NC(Cc1ccccc1)C(=O)O (centres unmarked) [DS-28, AcNH-DYYF-OH] (Ac-DYYF-OH; configuration not given here)", "µg/mL", 321),
    ("NC(=O)C(Cc1ccccc1)NC(=O)C(Cc1ccc(O)cc1)NC(=O)C(Cc1ccc(O)cc1)NC(=O)C(N)CC(=O)O (centres unmarked) [DS-29, NH2-DYYF-NH2] (H-DYYF-NH2; configuration not given here)", "µg/mL", 300),
    ("NC(CC(=O)O)C(=O)NC(Cc1ccc(O)cc1)C(=O)NC(Cc1ccc(O)cc1)C(=O)NC(Cc1ccccc1)C(=O)O (centres unmarked) [DS-27, NH2-DYYF-OH] (H-DYYF-OH; configuration not given here)", "µg/mL", 300),
]

I: CC(C)CC1NC(=O)C(N)CC/C=C\CC(C(N)=O)NC(=O)C(Cc2ccc(O)cc2)NC(=O)C(Cc2ccc(O)cc2)NC1=O (centres unmarked) [DS-73] (H-[ξhAlg]LYY[AllylGly]-NH2; staple (Z) 1-5; configuration not given here)
II: CC(C)CC(NC(=O)CN)C(=O)NC(Cc1ccc(F)cc1)C(=O)NC(Cc1ccc(O)cc1)C(=O)NC(Cc1ccccc1)C(N)=O (centres unmarked) [DS-51, NH2-GLF(4-F)YF-NH2] (H-GL[Phe(4-F)]YF-NH2; configuration not given here)
input: Select the item whose solubility at 24 h value is smaller, choosing between I and II . Bench note: the answer is the label of the chosen record.
output: II

###

system: AMPK phosphorylation; test: AMPK phosphorylation activity in mouse adipocytes (Western blot); type: cell-based; details: 3T3-L1, 10 μM, 24 hours; APN5 = 1.0
Square brackets hold non-standard residues; d marks the D form. Peptide text beside a SMILES is read from it. Phe(4-F) = N[CH](Cc1ccc(F)cc1)C(=O)O
measuredAttribute: AMPK phosphorylation activity (fold change)
# unit: fold change | format: bare number

The examples below pair each entry with its known result.
# compound, numericResult
records = [
    ("CC(C)C[C@H](NC(=O)CN)C(=O)N[C@@H](Cc1ccc(O)cc1)C(=O)N[C@@H](Cc1ccc(O)cc1)C(=O)N[C@@H](Cc1ccccc1)C(=O)O [APN5, NH2-GLYYF-OH, reference compound]", 1.0),
    ("NC(=O)C(Cc1ccccc1)NC(=O)C(Cc1ccc(O)cc1)NC(=O)C(Cc1ccc(O)cc1)NC(=O)C(N)CC(=O)O (centres unmarked) [DS-29, NH2-DYYF-NH2] (H-DYYF-NH2; configuration not given here)", 1.2),
    ("CC(C)CC(NC(=O)CN)C(=O)NC(Cc1c[nH]c2ccccc12)C(=O)NC(Cc1ccc(O)cc1)C(=O)NC(Cc1ccccc1)C(N)=O (centres unmarked) [DS-17, NH2-GLWYF-NH2] (H-GLWYF-NH2; configuration not given here)", 1.2),
    ("CCC(C)C(NC(=O)CN)C(=O)NC(Cc1c[nH]c2ccccc12)C(=O)NC(Cc1ccc(O)cc1)C(=O)NC(Cc1ccccc1)C(N)=O (centres unmarked) [DS-18, NH2-GIWYF-NH2] (H-GIWYF-NH2; configuration not given here)", 1.2),
]

Could you now look at the following compound, please?
Lab note: CC(C)CC(NC(=O)CN)C(=O)NC(Cc1ccc(F)cc1)C(=O)NC(Cc1ccc(O)cc1)C(=O)NC(Cc1ccccc1)C(N)=O (centres unmarked) [DS-51, NH2-GLF(4-F)YF-NH2] (H-GL[Phe(4-F)]YF-NH2; configuration not given here) gave AMPK phosphorylation activity (fold change) of 1.3
